Molecular target: T1, PUF4 RNA-binding domain (Saccharomyces cerevisiae, UniProt P25339 537-888)
T1 sequence: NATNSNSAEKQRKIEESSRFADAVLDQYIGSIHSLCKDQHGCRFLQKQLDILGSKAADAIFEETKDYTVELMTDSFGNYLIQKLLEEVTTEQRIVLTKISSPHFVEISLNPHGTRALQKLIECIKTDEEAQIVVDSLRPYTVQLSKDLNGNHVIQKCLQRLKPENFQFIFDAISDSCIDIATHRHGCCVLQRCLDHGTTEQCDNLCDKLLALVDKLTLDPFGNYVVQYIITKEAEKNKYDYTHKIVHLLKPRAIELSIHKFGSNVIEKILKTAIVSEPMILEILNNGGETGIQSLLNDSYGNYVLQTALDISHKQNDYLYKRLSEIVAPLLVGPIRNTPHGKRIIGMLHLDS
Assay: Mg; RNA-MaP; 20 mM Na-HEPES pH 7.4, 30 mM KOAc, 0.75 mM MgCl2, 0.1% Tween-20, 5% glycerol, 0.1 mg/mL BSA, 2 mM DTT; 25 C; 0.0125-409.6 nM protein
Details: tags: N-His6-TEV cleaved; C-SNAP kept, Cy3B-labelled; label: tethered on chip by stalled RNA polymerase
parameter-measured: Kd (nM)
The figure you give is taken to be in nM; do not add the unit.

Recorded Kd (binder Ie_S2_P3E.2_K3.1_C3.2_[+-2CCCT]_H3.1_A3.1_F3.1_T3.2 (ssRNA) RNA: UUUGAUUAAUAUGAUAUCGUUCUUUCUCCCCUUUGUAUAUAUAUUCUUUCUCGAUAUCAUAUUAAUCUUU ): 0.468

Recorded Kd (binder UCUCUUCUUAUAUUAUUAGCUCUCUU (ssRNA) [Id_ii_S1_P5E.3_K5.2_C5.2_H5.2_A5.1_F5.1_T5.2_[T11G]_[A12C]] ): 122

Recorded Kd (binder Id_ii_S2_P3E.4_K3.3_C3.2_[C-2T]_[T-1C]_H3.3_A3.1_F3.1_T3.2_[A10C] (ssRNA) RNA: UUUGAUUAAUAUGAUAUCGUUCUUUCUUCACACUAUAUCUUCUUUCUCGAUAUCAUAUUAAUCUUU ): 1260

Recorded Kd (binder UCUCUUUGUAGUUCCCUCUCUU (ssRNA) [Ic_S1_P5E.1_K5.1_C5.1_H5.1_A5.1_[T5G]_[A7T]_F5.1_[T8C]_[T9C]_[A10C]_T5.1] ): 1650

Recorded Kd (binder UCUCUUACUAUAUAUAAAUCUCUU (ssRNA) [Id_ii_S1_P3E.3_K3.2_C3.2_[C-2A]_[T-1C]_H3.2_A3.1_F3.1_T3.2_[T9A]] ): 1360

Recorded Kd (binder Ib_S2_P3E.1_K3.1_C3.1_H3.1_[A4G]_A3.1_F3.1_[A8C]_T3.1 (ssRNA) RNA: UUUGAUUAAUAUGAUAUCGUUCUUUCUUGUGUAUCUUCUUUCUCGAUAUCAUAUUAAUCUUU ): 15.7

Recorded Kd (binder Ic_S4_P4E.1_K4.1_C4.1_H4.1_A4.1_[T5C]_[A6G]_[T7A]_F4.1_[T8C]_T4.1 (ssRNA) RNA: UUUGACAACUGAUCGUUCUUUCUUGUACGACAUUCUUUCUCGAUCAGUUGUCUUU ): 436

Recorded Kd (binder Ic_S2_P5E.1_K5.1_C5.1_H5.1_A5.1_[T6A]_[A7T]_F5.1_[T8C]_[T9C]_[A10T]_T5.1 (ssRNA) RNA: UUUGAUUAAUAUGAUAUCGUUCUUUCUUGUAUAUCCUUUCUUUCUCGAUAUCAUAUUAAUCUUU ): 10.3

Recorded Kd (binder UCUCUUGCUAUAUAUAUCUCUCUU (ssRNA) [Id_ii_S1_P3E.3_K3.2_C3.2_[C-2G]_[T-1C]_H3.2_A3.1_F3.1_T3.2_[A10C]] ): 545

Recorded Kd (binder Ie_S2_P4E.1_K4.1_C4.1_H4.1_A4.1_[+7CTC]_F4.1_T4.1 (ssRNA) RNA: UUUGAUUAAUAUGAUAUCGUUCUUUCUUGUAUAUCUCUAUUCUUUCUCGAUAUCAUAUUAAUCUUU ): 8.21

Recorded Kd (binder Id_ii_S4_P3E.4_K3.3_C3.2_[C-2A]_[T-1C]_H3.3_A3.1_F3.1_T3.2_[A10T] (ssRNA) RNA: UUUGACAACUGAUCGUUCUUUCUACACACUAUAUUUUCUUUCUCGAUCAGUUGUCUUU ): 1140

Recorded Kd (binder UCUCUUUUUGUAUUAUUAGCUCUCUU (ssRNA) [Id_ii_S1_P5E.2_K5.1_C5.2_[C-2T]_H5.1_A5.1_F5.1_T5.2_[T11G]_[A12C]] ): 4.26

Recorded Kd (binder Ic_S2_P4E.1_K4.1_C4.1_H4.1_A4.1_[T5C]_[A6T]_[T7G]_F4.1_[A9T]_T4.1 (ssRNA) RNA: UUUGAUUAAUAUGAUAUCGUUCUUUCUUGUACUGUUUUCUUUCUCGAUAUCAUAUUAAUCUUU ): 28.6

Recorded Kd (binder Ie_S4_P3E.2_K3.1_C3.2_H3.1_[+4CTC]_A3.1_F3.1_T3.2 (ssRNA) RNA: UUUGACAACUGAUCGUUCUUUCUCUUGUACUCUAUAUAUUCUUUCUCGAUCAGUUGUCUUU ): 1.08

Recorded Kd (binder UCUCUUUGUCAAUUAUCUCUU (ssRNA) [Ib_S1_P4E.1_K4.1_C4.1_H4.1_[A4C]_A4.1_[T5A]_F4.1_T4.1] ): 134

Recorded Kd (binder UCUCUUUGUAACGCUUCUCUU (ssRNA) [Ic_S1_P4E.1_K4.1_C4.1_H4.1_A4.1_[T5A]_[A6C]_[T7G]_F4.1_[T8C]_[A9T]_T4.1] ): 581

Recorded Kd (binder UCUCUUUGUAUGUUCUCUCUU (ssRNA) [Ic_S1_P4E.1_K4.1_C4.1_H4.1_A4.1_[A6G]_F4.1_[A9C]_T4.1] ): 54.6

Recorded Kd (binder UCUCUUUGUAACUUUUCUCUU (ssRNA) [Ic_S1_P4E.1_K4.1_C4.1_H4.1_A4.1_[T5A]_[A6C]_F4.1_[A9T]_T4.1] ): 58.3

Recorded Kd (binder UCUCUUUUUACAUUAUCUCUU (ssRNA) [Ib_S1_P4E.1_K4.1_C4.1_H4.1_[G2T]_A4.1_[T5C]_F4.1_T4.1] ): 914

Recorded Kd (binder UCUCUUUAUUGUAAUAUUAUAUCUCUU (ssRNA) [Id_iii_S1_P5E.8_K5.4_C5.3_[C-2A]_H5.1_A5.2_F5.1_T5.2] ): 9.11

Recorded Kd (binder Ic_S2_P5E.1_K5.1_C5.1_H5.1_A5.1_[T5C]_[T6C]_F5.1_[T8C]_[T9C]_[A10C]_T5.1 (ssRNA) RNA: UUUGAUUAAUAUGAUAUCGUUCUUUCUUGUACCACCCUUCUUUCUCGAUAUCAUAUUAAUCUUU ): 347

Recorded Kd (binder UCUCUUUUUGUAUAUACCUCUCUU (ssRNA) [Id_ii_S1_P3E.2_K3.1_C3.2_[C-2T]_H3.1_A3.1_F3.1_T3.2_[T9C]_[A10C]] ): 12.1

Recorded Kd (binder Id_ii_S2_P3E.4_K3.3_C3.2_[T-1A]_H3.3_A3.1_F3.1_T3.2_[A10T] (ssRNA) RNA: UUUGAUUAAUAUGAUAUCGUUCUUUCUCAACACUAUAUUUUCUUUCUCGAUAUCAUAUUAAUCUUU ): 1130
